# Test system: MB2724 melanoma line
# experimental-protocol: ATP viability assay (Cell Titer-Glo)
# Assay type: cell-based
# experimental-parameters: Homo sapiens; MB2724, Triple WT, acral, 48 h
reported-metric: IC50 (µM)
The figure you give is taken to be in µM; do not add the unit.

Could you tell me which IC50 is on file for `Cc1c(-c2c(-c3ccc(F)o3)sc3ncnc(O[C@H](Cc4ccccc4OCc4ccnn4CC(F)(F)F)C(=O)O)c23)ccc(OCCN2CCN(C)CC2)c1Cl` ?
3.24

----------
# Tested on: MB4667 melanoma line
# experimental-protocol: ATP viability assay (Cell Titer-Glo)
# Assay type: cell-based
# experimental-parameters: Homo sapiens; MB4667, NRAS Q61R, acral, 48 h
reported-metric: pIC50
The read-out pIC50 is expressed as -log10 of concentration in moles per litre.

Could you tell me which pIC50 is on file for CC1(C)CCC(CN2CCN(c3ccc(C(=O)NS(=O)(=O)c4ccc(NCC5CCOCC5)c([N+](=O)[O-])c4)c(Oc4cnc5[nH]ccc5c4)c3)CC2)=C(c2ccc(Cl)cc2)C1 [ABT-199, venetoclax] ?
5.11
